Biological target: T1, SH2 domain of Crkl protein (residues 1-111), wild type (UniProt P46109 1-111)
T1 construct: Crkl adaptor protein, SH2 domain, residues 1-111; Subcloned in pET28b+; all experiments were done on the N-terminally His-tagged protein; also called Crkl-SH2; Crkl SH2 domain; source: E. coli BL21 (DE3), purified (HisTrap nickel column, desalting); not shown: His tag, N-terminal, kept
T1 sequence (P46109 1-111): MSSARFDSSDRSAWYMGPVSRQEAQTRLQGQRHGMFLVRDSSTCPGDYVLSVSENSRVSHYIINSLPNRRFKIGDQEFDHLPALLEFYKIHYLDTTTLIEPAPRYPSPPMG
Test: stopped-flow fluorescence kinetics (FRET); dansyl-Pax112-123 constant at 2 μM mixed with Crkl-SH2 2 to 10 μM (pseudo-first-order, kon); koff by displacement of the preincubated 2 µM complex with excess non-dansylated Pax112-123 (30 μM); 283 K; 50 mM sodium-acetate pH 5.5, 0.5 M NaCl
Details: both partners purified
Square brackets hold non-standard residues; d marks the D form. Ends that are not written are not given here. * marks the point of attachment. pY = N[C@@H](Cc1ccc(OP(=O)(O)O)cc1)C(=O)O; Dansyl = CN(C)c1cccc2c(S(=O)(=O)*)cccc12

BINDER | OUTPUT_UNIT | Kd
Dansyl-GEEEHV[pY]SFPNK (The dansyl group is the FRET acceptor of Trp14 of the SH2 domain; source: synthetic peptide, bought: GenScript) [dansylated Pax_(112–123) peptide (Dans-GEEEHV-pY-SFPNK)] | nM | 3000
